# Test system: mGrn mRNA
# Experimental Protocol: mGrn mRNA qPCR in Neuro2a cells transfected with ASOs
# Assay type: cell-based, mouse
# Protocol Conditions: Table 14; Neuro2a, 100 nM, 48 hours; normalized to sNTC3
Oligonucleotides are written 5' to 3', each unit as a sugar letter and its base; * is a phosphorothioate linkage, no mark a phosphodiester; rarer units and linkages stand in square brackets, end groups in braces. Plain capitals give the bases only. e = 2'-O-(2-methoxyethyl) (MOE); [5mC] = 5-methylcytosine
Endpoint Label: mGRN mRNA FC (FC)
Number in FC, nothing else.

See these solved cases before continuing.
Substance	Reading
CO-3585: ASO targeting the Grn promoter (− strand) (antisense eG*eT*e[5mC]*e[5mC]*e[5mC]*eA*e[5mC]*e[5mC]*eT*eT*eA*eT*e[5mC]*eA*eG*e[5mC]*e[5mC]*eT*e[5mC]*eT)	1.7
CO-3553: ASO targeting the Grn promoter (− strand) (antisense e[5mC]*eA*eA*eG*eT*eG*eT*eT*e[5mC]*eT*e[5mC]*eT*eG*e[5mC]*eG*eG*e[5mC]*eG*eG*e[5mC])	1.3
CO-3591: ASO targeting the Grn promoter (− strand) (antisense e[5mC]*e[5mC]*eA*e[5mC]*e[5mC]*eA*eG*e[5mC]*e[5mC]*eT*eA*e[5mC]*eT*e[5mC]*e[5mC]*eA*e[5mC]*eA*eG*eG)	1.4

Next item in the queue.
Let me check: CO-3555: ASO targeting the Grn promoter (− strand) (antisense e[5mC]*eT*e[5mC]*eT*eT*eG*eT*e[5mC]*e[5mC]*eG*eT*eA*e[5mC]*eT*eT*e[5mC]*e[5mC]*e[5mC]*eA*e[5mC]) , system mGrn mRNA, measured mGRN mRNA FC is 1.5
